experiment: A quantitative high throughput screen for small molecules that induce DNA re-replication in MCF 10a normal breast cells.; further: nearly all actives have a fitted effect of over 50% in size; conditions: MCF 10A DNA re-replication, Hoechst nuclear intensity, 48 h; series mostly up to 46.1 µM
Hit rate of the full screen: of about 350,000 compounds, about 9,900 (2.8%) were called active. Another 15% or so got no clear call; they are omitted. The call rests on the fitted dose curve; in most records, active means well fitted activation curve with a large enough effect; inconclusive means small, poorly fitted or top-dose-only effect; inactive means no such curve, though single readings can be large or run the other way. Shown is part of a subset that was picked to be rich in actives.
Pick one and only one: active, inactive

Sample answers from the record:
>>> label_value("COc1ccc(OCCNC(=O)c2cc(C3CC3)nc3c2cnn3C(C)C)cc1")
"inactive"
>>> label_value("CC(/C=N/NC(=O)c1ccncc1)=C\\c1ccco1")
"inactive"
>>> label_value("COC(=O)c1c(NC(=O)c2cccs2)sc2c1CCCC2")
"inactive"
>>> label_value("CCS(=O)(=O)C1=NSC2=NC(=O)/C(=C\\c3ccc(OS(=O)(=O)c4ccccc4)cc3)C(=N)N21")
"inactive"
>>> label_value("CCC(Cc1ccccc1)NC(=O)C1CCCCC1 (stereo not drawn)")
"active"
>>> label_value("COc1ccc(-c2n[nH]c(C)c2-c2ccccc2OC)c(O)c1")
"inactive"
>>> label_value("O=C(COC(=O)CNC(=O)C1CCCCC1)NCc1ccccc1")
"inactive"
>>> label_value("O=C(Nc1ccc(Cl)c(Cl)c1)N1CC=C(c2ccccc2)CC1")
"active"

Record request — test call for CCOc1cc(C(=O)N(Cc2ccccc2)c2ccc(C)cc2)ccc1OCC(=O)N1CCOCC1
inactive

For CC(=C/c1ccccc1)/C=N/NC(=O)c1cc(C)oc1C , which call appears in the assay record?
inactive

Status in this test for O=c1cc(-c2ccccc2)[nH]c2cc(F)ccc12 ?
active

Can you look up the reported call for N#CCC(=O)N/N=C/c1cn(Cc2ccc3ccccc3c2)c2ccccc12 for me?
active

Status in this test for Cc1cnc(NC(=O)CSc2nnc(-c3ccc(Cl)cc3Cl)n2N)s1 ?
inactive

Assay result, entry CCOc1ccccc1NC(=O)CCc1ccc(C)o1 — outcome?
inactive

Record request — test call for Cc1ccc(-c2cc(=O)c3ccc(F)cc3[nH]2)cc1
inactive

# fetch the recorded call for Cc1ccccc1N1CCN(C(=O)c2cccnc2)CC1 here
inactive

Record lookup: outcome of this test for Cc1[nH][nH]c(=O)c1N=Nc1ccccc1 ?
inactive

How was CN(CC(=O)Nc1ccc(F)cc1)C(=O)c1ccc(-c2ccc(Cl)cc2)o1 classified in this test?
inactive

Check the results log: what was the call for COc1ccc(S(=O)(=O)N(C)C[C@@H]2Oc3ccc(NC(=O)Nc4c(C)noc4C)cc3C(=O)N([C@H](C)CO)C[C@@H]2C)cc1 ?
inactive

Dear colleague, could you share the recorded outcome for Cc1ccc(NC(=O)[C@H](Cc2ccccc2)NC(=O)C2CCNCC2)cc1 when you have a moment?
inactive

Write down the call the test reported for this molecule. Item: CCOc1ccc(-c2n[nH]c(C)c2-c2ccccn2)c(O)c1
inactive

Write down the call the test reported for this molecule. Item: O=C(O)c1cccc(S(=O)(=O)N2CC=C(c3ccccc3)CC2)c1
inactive

How did this test come out for COc1cc(C(=O)NCC(=O)N2CC=C(c3ccccc3)CC2)cc(OC)c1OC ?
inactive

====

assay: A quantitative high throughput screen for small molecules that induce DNA re-replication in MCF 10a normal breast cells.; further: nearly all actives have a fitted effect of over 50% in size; conditions: MCF 10A DNA re-replication, Hoechst nuclear intensity, 48 h; series mostly up to 46.1 µM
The whole screen tested about 350,000 compounds, of which about 9,900 (2.8%) were called active. Not shown: some 15% with an inconclusive outcome. Calls come from the whole dose curve; as a rule, active = well fitted activation curve with a large enough effect; inconclusive = small, poorly fitted or top-dose-only effect; inactive = no such curve, though single readings can be large or run the other way. The sample holds actives, similar compounds and a random draw of the others, so the mix is not that of the screen.
Please state which outcome applies, choosing from Yes (active), No (inactive)

>>> label_value("Cc1cccc(-c2oc3ccc(-c4ccc5c(c4)OCO5)cc3c2C#Cc2cncn2C)c1")
"No"

How did this test come out for O=C1c2ccccc2C(=O)C1C(=O)C1CC1 ?
No

Status in this test for Cc1ccc2c(N)c(C(=O)c3ccccc3)sc2n1 ?
No

Please indicate how the test categorized COc1ccc2cc(S(=O)(=O)Nc3ccccn3)ccc2c1 .
No

Per the records of this test, what outcome belongs to COc1ccc(-c2nnc(SC(C)C(=O)NC3CC3)o2)cc1 (stereo unspecified) ?
No

// return assay outcome for COc1cc(NS(=O)(=O)c2ccc3ccccc3c2)c2ncccc2c1
Yes

What outcome does the record of this test show for CCc1nc2sc(C(=O)O)c(N)c2c2c1CCCC2 ?
No
